experiment: molar heat capacity at constant pressure; conditions: 293.15 K; 101.33 kPa; Liquid; Small sample (50 mg) DSC
Observation Type: molar heat capacity at constant pressure (J/K/mol)

CCCCCCCC(=O)[O-].CCCCCCCCCCCCCC[P+](CCCCCC)(CCCCCC)CCCCCC [trihexyl(tetradecyl)phosphonium octanoate] = 1138.1
CCCC(=O)[O-].CCCCCCCCCCCCCC[P+](CCCCCC)(CCCCCC)CCCCCC [trihexyl(tetradecyl)phosphonium butyrate] = 1107.1
CCCCCCCCCC(=O)[O-].CCCCCCCCCCCCCC[P+](CCCCCC)(CCCCCC)CCCCCC [trihexyltetradecylphosphonium decanoate] = 1181.2
CC(=O)[O-].CCCCCCCCCCCCCC[P+](CCCCCC)(CCCCCC)CCCCCC [trihexyl(tetradecyl)phosphonium acetate] = 1095.6
CCCCCC(=O)[O-].CCCCCCCCCCCCCC[P+](CCCCCC)(CCCCCC)CCCCCC [trihexyl(tetradecyl)phosphonium hexanoate] = 1133.3

----------
details: 318.2 K; 101.33 kPa; Liquid; Cone and plate viscometry
Observation Type: viscosity (mPa·s)

CCCCCCCC(=O)[O-].CCCCCCCCCCCCCC[P+](CCCCCC)(CCCCCC)CCCCCC [trihexyl(tetradecyl)phosphonium octanoate] = 141.2
CCCCCC(=O)[O-].CCCCCCCCCCCCCC[P+](CCCCCC)(CCCCCC)CCCCCC [trihexyl(tetradecyl)phosphonium hexanoate] = 123.4

a = CCCC(=O)[O-].CCCCCCCCCCCCCC[P+](CCCCCC)(CCCCCC)CCCCCC [trihexyl(tetradecyl)phosphonium butyrate]
b = CCCCCCCCCC(=O)[O-].CCCCCCCCCCCCCC[P+](CCCCCC)(CCCCCC)CCCCCC [trihexyltetradecylphosphonium decanoate]
Parameter metric = viscosity. Return the lower-valued option from a and b . Return value: the label identifying the chosen record. a
(a: 91.46 mPa·s, b: 151.3 mPa·s)

----------
assay: molar heat capacity at constant pressure; conditions: 343.15 K; 101.33 kPa; Liquid; Small sample (50 mg) DSC
Observation Type: molar heat capacity at constant pressure (J/K/mol)

CCCCCC(=O)[O-].CCCCCCCCCCCCCC[P+](CCCCCC)(CCCCCC)CCCCCC [trihexyl(tetradecyl)phosphonium hexanoate] = 1204
CCCCCCCCCC(=O)[O-].CCCCCCCCCCCCCC[P+](CCCCCC)(CCCCCC)CCCCCC [trihexyltetradecylphosphonium decanoate] = 1264.4
CC(=O)[O-].CCCCCCCCCCCCCC[P+](CCCCCC)(CCCCCC)CCCCCC [trihexyl(tetradecyl)phosphonium acetate] = 1147.1
CCCC(=O)[O-].CCCCCCCCCCCCCC[P+](CCCCCC)(CCCCCC)CCCCCC [trihexyl(tetradecyl)phosphonium butyrate] = 1168.2
CCCCCCCC(=O)[O-].CCCCCCCCCCCCCC[P+](CCCCCC)(CCCCCC)CCCCCC [trihexyl(tetradecyl)phosphonium octanoate] = 1220.9

----------
assay: molar heat capacity at constant pressure; conditions: 298.15 K; 101.33 kPa; Liquid; Small sample (50 mg) DSC
Observation Type: molar heat capacity at constant pressure (J/K/mol)

CCCCCCCCCC(=O)[O-].CCCCCCCCCCCCCC[P+](CCCCCC)(CCCCCC)CCCCCC [trihexyltetradecylphosphonium decanoate] = 1191.7
CC(=O)[O-].CCCCCCCCCCCCCC[P+](CCCCCC)(CCCCCC)CCCCCC [trihexyl(tetradecyl)phosphonium acetate] = 1097.7
CCCCCC(=O)[O-].CCCCCCCCCCCCCC[P+](CCCCCC)(CCCCCC)CCCCCC [trihexyl(tetradecyl)phosphonium hexanoate] = 1141.7
CCCC(=O)[O-].CCCCCCCCCCCCCC[P+](CCCCCC)(CCCCCC)CCCCCC [trihexyl(tetradecyl)phosphonium butyrate] = 1112.8
CCCCCCCC(=O)[O-].CCCCCCCCCCCCCC[P+](CCCCCC)(CCCCCC)CCCCCC [trihexyl(tetradecyl)phosphonium octanoate] = 1150.7

----------
assay: molar heat capacity at constant pressure; details: 338.15 K; 101.33 kPa; Liquid; Small sample (50 mg) DSC
Observation Type: molar heat capacity at constant pressure (J/K/mol)

CCCCCC(=O)[O-].CCCCCCCCCCCCCC[P+](CCCCCC)(CCCCCC)CCCCCC [trihexyl(tetradecyl)phosphonium hexanoate] = 1196.8
CCCCCCCCCC(=O)[O-].CCCCCCCCCCCCCC[P+](CCCCCC)(CCCCCC)CCCCCC [trihexyltetradecylphosphonium decanoate] = 1250.6
CCCCCCCC(=O)[O-].CCCCCCCCCCCCCC[P+](CCCCCC)(CCCCCC)CCCCCC [trihexyl(tetradecyl)phosphonium octanoate] = 1213.4
CCCC(=O)[O-].CCCCCCCCCCCCCC[P+](CCCCCC)(CCCCCC)CCCCCC [trihexyl(tetradecyl)phosphonium butyrate] = 1161.3
CC(=O)[O-].CCCCCCCCCCCCCC[P+](CCCCCC)(CCCCCC)CCCCCC [trihexyl(tetradecyl)phosphonium acetate] = 1140.6

----------
conditions: 333.15 K; 101.33 kPa; Liquid; Vibrating tube method
Observation Type: mass density (kg/m3)

CCCCCCCCCC(=O)[O-].CCCCCCCCCCCCCC[P+](CCCCCC)(CCCCCC)CCCCCC [trihexyltetradecylphosphonium decanoate] = 855.7
CC(=O)[O-].CCCCCCCCCCCCCC[P+](CCCCCC)(CCCCCC)CCCCCC [trihexyl(tetradecyl)phosphonium acetate] = 872.9
CCCCCCCC(=O)[O-].CCCCCCCCCCCCCC[P+](CCCCCC)(CCCCCC)CCCCCC [trihexyl(tetradecyl)phosphonium octanoate] = 859.8
CCCCCC(=O)[O-].CCCCCCCCCCCCCC[P+](CCCCCC)(CCCCCC)CCCCCC [trihexyl(tetradecyl)phosphonium hexanoate] = 863.6
CCCC(=O)[O-].CCCCCCCCCCCCCC[P+](CCCCCC)(CCCCCC)CCCCCC [trihexyl(tetradecyl)phosphonium butyrate] = 869

----------
conditions: 363.15 K; 101.33 kPa; Liquid; Vibrating tube method
Observation Type: mass density (kg/m3)

CCCCCCCCCC(=O)[O-].CCCCCCCCCCCCCC[P+](CCCCCC)(CCCCCC)CCCCCC [trihexyltetradecylphosphonium decanoate] = 837.4
CCCCCCCC(=O)[O-].CCCCCCCCCCCCCC[P+](CCCCCC)(CCCCCC)CCCCCC [trihexyl(tetradecyl)phosphonium octanoate] = 841.6
CCCC(=O)[O-].CCCCCCCCCCCCCC[P+](CCCCCC)(CCCCCC)CCCCCC [trihexyl(tetradecyl)phosphonium butyrate] = 850.3
CCCCCC(=O)[O-].CCCCCCCCCCCCCC[P+](CCCCCC)(CCCCCC)CCCCCC [trihexyl(tetradecyl)phosphonium hexanoate] = 845.4
CC(=O)[O-].CCCCCCCCCCCCCC[P+](CCCCCC)(CCCCCC)CCCCCC [trihexyl(tetradecyl)phosphonium acetate] = 854.7

----------
assay: molar heat capacity at constant pressure; details: 363.15 K; 101.33 kPa; Liquid; Small sample (50 mg) DSC
Observation Type: molar heat capacity at constant pressure (J/K/mol)

CCCCCCCC(=O)[O-].CCCCCCCCCCCCCC[P+](CCCCCC)(CCCCCC)CCCCCC [trihexyl(tetradecyl)phosphonium octanoate] = 1247.2
CCCC(=O)[O-].CCCCCCCCCCCCCC[P+](CCCCCC)(CCCCCC)CCCCCC [trihexyl(tetradecyl)phosphonium butyrate] = 1196.1
CCCCCC(=O)[O-].CCCCCCCCCCCCCC[P+](CCCCCC)(CCCCCC)CCCCCC [trihexyl(tetradecyl)phosphonium hexanoate] = 1235.2
CC(=O)[O-].CCCCCCCCCCCCCC[P+](CCCCCC)(CCCCCC)CCCCCC [trihexyl(tetradecyl)phosphonium acetate] = 1173.2
CCCCCCCCCC(=O)[O-].CCCCCCCCCCCCCC[P+](CCCCCC)(CCCCCC)CCCCCC [trihexyltetradecylphosphonium decanoate] = 1296.5

----------
settings: 343.15 K; 101.33 kPa; Liquid; Vibrating tube method
Observation Type: mass density (kg/m3)

CCCC(=O)[O-].CCCCCCCCCCCCCC[P+](CCCCCC)(CCCCCC)CCCCCC [trihexyl(tetradecyl)phosphonium butyrate] = 862.7
CCCCCC(=O)[O-].CCCCCCCCCCCCCC[P+](CCCCCC)(CCCCCC)CCCCCC [trihexyl(tetradecyl)phosphonium hexanoate] = 857.5
CC(=O)[O-].CCCCCCCCCCCCCC[P+](CCCCCC)(CCCCCC)CCCCCC [trihexyl(tetradecyl)phosphonium acetate] = 866.7
CCCCCCCC(=O)[O-].CCCCCCCCCCCCCC[P+](CCCCCC)(CCCCCC)CCCCCC [trihexyl(tetradecyl)phosphonium octanoate] = 853.7
CCCCCCCCCC(=O)[O-].CCCCCCCCCCCCCC[P+](CCCCCC)(CCCCCC)CCCCCC [trihexyltetradecylphosphonium decanoate] = 849.7

----------
settings: 333.2 K; 101.33 kPa; Liquid; Cone and plate viscometry
Observation Type: viscosity (mPa·s)

Record excerpt, results attached:
CCCCCC(=O)[O-].CCCCCCCCCCCCCC[P+](CCCCCC)(CCCCCC)CCCCCC [trihexyl(tetradecyl)phosphonium hexanoate] = 66.6
CCCCCCCC(=O)[O-].CCCCCCCCCCCCCC[P+](CCCCCC)(CCCCCC)CCCCCC [trihexyl(tetradecyl)phosphonium octanoate] = 75.22
CC(=O)[O-].CCCCCCCCCCCCCC[P+](CCCCCC)(CCCCCC)CCCCCC [trihexyl(tetradecyl)phosphonium acetate] = 40.22

a = CCCC(=O)[O-].CCCCCCCCCCCCCC[P+](CCCCCC)(CCCCCC)CCCCCC [trihexyl(tetradecyl)phosphonium butyrate]
b = CCCCCCCCCC(=O)[O-].CCCCCCCCCCCCCC[P+](CCCCCC)(CCCCCC)CCCCCC [trihexyltetradecylphosphonium decanoate]
Returns: the argument ( a or b ) having the larger viscosity. Response format: the label of the selected entry. b
